These entries and their values trace back to patent US20240279318A1.

# system: A*02:05
# protocol.summary: SPR; low fitting confidence
endpoint.name: Kd

binder	Kd
AS170036 VL1VH1-56N108A (scFv) scFv: QSALTQPRSVSGSPGQSVTISCAGTSSDVGSENYVSWYQQHPGKAPKLMIYQVNKRASGVPDRFSGSKSGNTASLTISGLQAEDEADYYCASYRSSDHNIVFGGGTKLTVLGGGGSGGGGSGGGGSEVQLVESGGGLVQPGGSLRLSCAASGFTFSSYAMSWVRQAPGKGLEWVSTINSGTNSPYYADSVKGRFTISRDNSKNTLYLQMNSLRAEDTAVYYCAKNFFDGSWFLAPPAMDYWGQGTLVTVSSHHHHHH	> 2 µM

Go through the items and report each one's Kd.
1. AS170036 VL1VH1-56Y98Q108S (scFv) scFv: QSALTQPRSVSGSPGQSVTISCAGTSSDVGSENYVSWYQQHPGKAPKLMIYQVNKRASGVPDRFSGSKSGNTASLTISGLQAEDEADYYCASYRSSDQNIVFGGGTKLTVLGGGGSGGGGSGGGGSEVQLVESGGGLVQPGGSLRLSCAASGFTFSSYAMSWVRQAPGKGLEWVSTINSGTYSPYYADSVKGRFTISRDNSKNTLYLQMNSLRAEDTAVYYCAKNFFDGSWFLSPPAMDYWGQGTLVTVSSHHHHHH
2. AS170036 VL1VH1-98I108A (scFv) scFv: QSALTQPRSVSGSPGQSVTISCAGTSSDVGSENYVSWYQQHPGKAPKLMIYQVNKRASGVPDRFSGSKSGNTASLTISGLQAEDEADYYCASYRSSDINIVFGGGTKLTVLGGGGSGGGGSGGGGSEVQLVESGGGLVQPGGSLRLSCAASGFTFSSYAMSWVRQAPGKGLEWVSTINSGTGSPYYADSVKGRFTISRDNSKNTLYLQMNSLRAEDTAVYYCAKNFFDGSWFLAPPAMDYWGQGTLVTVSSHHHHHH

["> 1.4 µM", "> 1.1 µM"]

Give Kd for the following binder: AS170036 VL1VH1-57M98Q (scFv) scFv: QSALTQPRSVSGSPGQSVTISCAGTSSDVGSENYVSWYQQHPGKAPKLMIYQVNKRASGVPDRFSGSKSGNTASLTISGLQAEDEADYYCASYRSSDQNIVFGGGTKLTVLGGGGSGGGGSGGGGSEVQLVESGGGLVQPGGSLRLSCAASGFTFSSYAMSWVRQAPGKGLEWVSTINSGTGMPYYADSVKGRFTISRDNSKNTLYLQMNSLRAEDTAVYYCAKNFFDGSWFLGPPAMDYWGQGTLVTVSSHHHHHH
> 0.91 µM
